I'd be grateful if you could share measured inhibition at 10 µM for these entries.
- Tested on: BLT2-expressing cells [BLT2가 발현된 세포 (CHO-BLT2 cells)]
- measurement_protocol: Growth inhibition of BLT2-expressing cells (MTT cell viability)
- Type: cell-based
- measurement_setup: 10 μM pretreatment 1 h, then LTB4 300 nM, 24 h; read-out: growth inhibition effect
Express your answer in %, writing the number without its unit.

Provide measured inhibition at 10 µM value, entry: CCCCC(=O)N(CC#Cc1ccc(C(=O)NC(C)C(=O)O)cc1)c1ccccc1 (stereo not drawn) [LMT-1019] 99

Provide measured inhibition at 10 µM value, entry: CCCCC(=O)N(CC#Cc1ccc(C(=O)N2CCN(C(C)C)CC2)cc1)c1ccc(F)cc1 [LMT-841] 60

Provide measured inhibition at 10 µM value, entry: CCCCC(=O)N(CC#Cc1ccc(C(=O)N(CC)CC)cc1)c1ccccc1 [LMT-883] 99
